From: paper PMC3094755

Molecular target: PARP-1 F2 K141I/K142I (Homo sapiens, UniProt P09874 103-214, K141I;K142I)
Sequence (P09874 103-214 K141I/K142I): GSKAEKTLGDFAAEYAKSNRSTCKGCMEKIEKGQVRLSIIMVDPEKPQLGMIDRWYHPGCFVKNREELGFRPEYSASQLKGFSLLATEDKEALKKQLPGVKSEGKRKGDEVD
Experiment: fluorescence anisotropy; 25 mM NaCl; apparent, one-site model; FA: 50 mM Tris-HCl pH 7, 150 uM ZnSO4, 4 mM DTT, 0-200 mM NaCl, 25 C, 10 nM DNA (mutants 25 nM DNA, 25 mM NaCl); EMSA: 50 mM Tris-HCl pH 7.4, 150 uM ZnSO4, 4 mM DTT, 10% glycerol, RT incubation, gel at 4 C; NMR complexes: 50 mM Tris pH 7.0, 150 uM ZnSO4, 4 mM DTT, 37 C
Conditions: protein: recombinant; label: fluorescein-dT at T8; single-chain dumbbell, 18 bp with central nick, two tetraloops
pKd: −log10 of the molar value.
ASSAY_READOUT: pKd

BINDER: CGGTCGATCGTAAGATCGACCGGCGCTGGAGCTTGCTCCAGCGC (structured_DNA, 5'-phosphate) [44-nt nicked dumbbell, 5'-phosphate, fluorescein-dT]
ASSAY_READOUT: pKd
OBSERVED: 5.41
